Biological target: DNA gyrase (Escherichia coli, UniProt P0AES4+P0AES6)
Construct: His6 (N)
Test: Inhibition of DNA gyrase supercoiling of relaxed plasmid pBR322 (agarose gel electrophoresis)
Conditions: relaxed pBR322, 60 min, 25°C; read-out: I50 (inhibition activity towards DNA gyrase)
pIC50: −log10 of the molar value.
READOUT: pIC50

Could you tell me which pIC50 is on file for CN1C2=Nn3cc(C(=O)O)c(=O)c4c(F)c(F)c(N5CCCC5)c(c43)N2c2cc(F)c(F)cc21 [EV-465] ?
< 4.20
